- Test system: HeLa Kyoto
- Test name: melting temperature (median over replicates), in situ; higher = more thermally stable
- Experimental setup: cell cycle stage: G1/S
Assay endpoint: melting temperature (°C)
Numbers only, in °C.

MAAPSEVAAIAPGEGDGGGGGFGSWLDGRLEALGVDRAVYGAYILGILQEEEEEEKLDALQGILSAFLEEDSLLNICKEIVERWSETQNVVTKVKKEDEVQAIATLIEKQAQIVVKPRMVSEEEKQRKAALLAQYADVTDEEDEADEKDDSGATTMNIGSDKLLFRNTNVEDVLNARKLERDSLRDESQRKKEQDKLQRERDKLAKQERKEKEKKRTQRGERKR [CCDC43] :: 53.8

Using the record for MNNLSFSELCCLFCCPPCPGKIASKLAFLPPDPTYTLMCDESGSRWTLHLSERADWQYSSREKDAIECFMTRTSKGNRIACMFVRCSPNAKYTLLFSHGNAVDLGQMSSFYIGLGSRINCNIFSYDYSGYGASSGKPTEKNLYADIEAAWLALRTRYGIRPENVIIYGQSIGTVPSVDLAARYESAAVILHSPLTSGMRVAFPDTKKTYCFDAFPNIDKISKITSPVLIIHGTEDEVIDFSHGLALFERCQRPVEPLWVEGAGHNDVELYGQYLERLKQFVSQELVNL [ABHD17B] , report its melting temperature.
54.9

###

- Test system: HeLa Kyoto
- Test name: melting temperature (median over replicates), in situ; higher = more thermally stable
- Experimental setup: cell cycle stage: G1/S
Assay endpoint: melting temperature (°C)
Answers are plain numbers, in °C.

Guide cases for melting temperature, answers given:
MCDFTEDQTAEFKEAFQLFDRTGDGKILYSQCGDVMRALGQNPTNAEVLKVLGNPKSDEMNVKVLDFEHFLPMLQTVAKNKDQGTYEDYVEGLRVFDKEGNGTVMGAEIRHVLVTLGEKMTEEEVEMLVAGHEDSNGCINYEAFVRHILSG [MYL6] :: 51.8
MAAQSAPKVVLKSTTKMSLNERFTNMLKNKQPTPVNIRASMQQQQQLASARNRRLAQQMENRPSVQAALKLKQSLKQRLGKSNIQARLGRPIGALARGAIGGRGLPIIQRGLPRGGLRGGRATRTLLRGGMSLRGQNLLRGGRAVAPRMGLRRGGVRGRGGPGRGGLGRGAMGRGGIGGRGRGMIGRGRGGFGGRGRGRGRGRGALARPVLTKEQLDNQLDAYMSKTKGHLDAELDAYMAQTDPETND [CHTOP] :: 51

Using the record for MEVKPPPGRPQPDSGRRRRRRGEEGHDPKEPEQLRKLFIGGLSFETTDDSLREHFEKWGTLTDCVVMRDPQTKRSRGFGFVTYSCVEEVDAAMCARPHKVDGRVVEPKRAVSREDSVKPGAHLTVKKIFVGGIKEDTEEYNLRDYFEKYGKIETIEVMEDRQSGKKRGFAFVTFDDHDTVDKIVVQKYHTINGHNCEVKKALSKQEMQSAGSQRGRGGGSGNFMGRGGNFGGGGGNFGRGGNFGGRGGYGGGGGGSRGSYGGGDGGYNGFGGDGGNYGGGPGYSSRGGYGGGGPGYGNQGGGYGGGGGYDGYNEGGNFGGGNYGGGGNYNDFGNYSGQQQSNYGPMKGGSFGGRSSGSPYGGGYGSGGGSGGYGSRRF [HNRNPA3] , report its melting temperature.
47.8

###

Answer each item with its documented melting temperature.
- System: HeLa Kyoto;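 also: HeLa Kyoto cells synchronized by double thymidine or nocodazole block, proteins quantified by TMT10plex mass spectrometry, three independent biological replicates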
- Test name: melting temperature (median over replicates), in situ; higher = more thermally stable
- Experimental setup: cell cycle stage: G1/S

Each sequence below has a recorded value; state its melting temperature.
1. MKLLTHNLLSSHVRGVGSRGFPLRLQATEVRICPVEFNPNFVARMIPKVEWSAFLEAADNLRLIQVPKGPVEGYEENEEFLRTMHHLLLEVEVIEGTLQCPESGRMFPISRGIPNMLLSEEETES [TRMT112]
2. MAAERGAGQQQSQEMMEVDRRVESEESGDEEGKKHSSGIVADLSEQSLKDGEERGEEDPEEEHELPVDMETINLDRDAEDVDLNHYRIGKIEGFEVLKKVKTLCLRQNLIKCIENLEELQSLRELDLYDNQIKKIENLEALTELEILDISFNLLRNIEGVDKLTRLKKLFLVNNKISKIENLSNLHQLQMLELGSNRIRAIENIDTLTNLESLFLGKNKITKLQNLDALTNLTVLSMQSNRLTKIEGLQNLVNLRELYLSHNGIEVIEGLENNNKLTMLDIASNRIKKIENISHLTELQEFWMNDNLLESWSDLDELKGARSLETVYLERNPLQKDPQYRRKVMLALPSVRQIDATFVRF [PPP1R7]

1: 51.5 °C; 2: 52.7 °C
